# Assay comment: Cmax in male ICR mouse at 5 mg/kg, iv measured up to 24 hrs by LC-MS/MS analysis
# Format: ADME, organism-based
# Parameters: dose 5 mg/kg, time < 24 hrs, route iv
# Cond: in vivo
Metric: Cmax (ng/mL)

INSERT INTO assay_data (cpd_smiles, measured_result) VALUES
  ('Nc1nc(-c2ccco2)c2cnn(CCc3ccc(C(=O)Nc4ccccc4N)cc3)c2n1', 4700);

###

# Assay comment: Elimination rate constant in male ICR mouse at 5 mg/kg, iv measured up to 24 hrs by LC-MS/MS analysis
# Type: ADME, organism-based
# Cond: in vivo
Metric: k el at 24 h (s⁻¹)

INSERT INTO assay_data (cpd_smiles, metric, measured_result) VALUES
  ('Nc1nc(-c2ccco2)c2cnn(CCc3ccc(C(=O)Nc4ccccc4N)cc3)c2n1', 'k el at 24 h', 0.000506);
